- test-protocol: NCI Yeast Anticancer Drug Screen. Data for the cln2 rad14 strain (AID 165);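 also: 0% = growth equal to vehicle treated cultures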
- protocol-conditions: S. cerevisiae cln2 rad14 strain, at 50.0 µM (retest, dose inferred, filed as 5.0), active compounds read high
- Experimental: Growth inhibition of yeast strains with defined genetic alterations is measured as a screen for potential anti-cancer activity. Selected strains with alterations in DNA damage repair or cell cycle control were exposed to compounds and growth inhibition was measured relative to vehicle treated controls. The strain used in this assay is cln2 rad14
The panel holds about 79,000 compounds, 15% with a hit somewhere; the sample as a whole holds those more often. Where a SMILES comes first, the peptide text is derived from it. The star is where a group is joined. X7 = Clc1c(Cl)c(Cl)c(O*)c(Cl)c1Cl; Boc = CC(C)(C)OC(=O)*; OBn = c1ccc(CO*)cc1; Bn = c1ccc(C*)cc1
readout-type: growth inhibition (%)
Value expressed in %; do not type the unit.

Sample answers from the record:
| molecule | measured-value |
| --- | --- |
| CN(C)CCOC(=O)C1(CCC2CCCCC2)CCCCC1 | 37 |
| CC(CC=NCCN=CCC(C)CC(C)(C)C)CC(C)(C)C (stereo unspecified) | 10 |
| CC(C)CC(NC(=O)C(CCC(=O)OCc1ccccc1)NC(=O)OC(C)(C)C)C(=O)NC(COCc1ccccc1)C(=O)NC(Cc1ccccc1)C(=O)Oc1c(Cl)c(Cl)c(Cl)c(Cl)c1Cl (stereo unspecified) (Boc-E(OBn)LS(Bn)F-X7; configuration not given here) | 53 |
| N#Cc1c([N+](=O)[O-])cc(C(F)(F)F)cc1[N+](=O)[O-] | 99 |
| CSC1=Nc2ccccc2SC(c2ccccc2)C1c1ccccc1 (stereo unspecified) | -9 |

Give the measured growth inhibition of Cc1cc(NC(=S)SCc2ccc(F)cc2)c([N+](=O)[O-])cc1C .
97

Give the measured growth inhibition of O=c1[nH]c2c([N+](=O)[O-])cc(Cl)cc2nc1/C=C(\O)c1ccccn1 .
52

Give the measured growth inhibition of BrCC(Br)Cc1ccc2c(c1)OCO2 (stereo unspecified) .
21

Give the measured growth inhibition of CCCCC1C(=O)N2c3ccccc3-c3ccccc3N2C1=O .
8

Give the measured growth inhibition of Fc1ccc(CSC(=S)Nc2cccc(C(F)(F)F)c2)cc1 .
99

Give the measured growth inhibition of N#Cc1sc2c(c1OC(=O)c1ccc(Cl)cc1)c(=O)n(-c1ccccc1)c(=S)n2-c1ccccc1 .
6
